// data source = PubChem BioAssay (NCI)

Tested on: MALME-3M melanoma
EXPERIMENTAL PROTOCOL: NCI tumour cell line growth inhibition, 48 h
ENDPOINT LABEL: TGI (µM)
Answer format: numeric, µM implied, no suffix.

// below: answered molecules
| MOLECULE | TGI (µM) |
| --- | --- |
| CCOC(=O)c1cc(C(=O)c2cc(OC)c(OC)c(OC)c2)n2ccc(-c3cc[n+](CC(=O)c4cc(OC)c(OC)c(OC)c4)cc3)cc12 | 3.68 |
| CCS(=O)(=O)N1CCN(c2ccc(Nc3ncc(C(N)=O)c(NC4CC4)n3)cc2)CC1 | 85.2 |
| O=C1c2c(O)cccc2Cc2cc(CO)cc(O)c21 | 5.37 |
| CN(C)C/C=C/C(=O)Nc1cc2c(Nc3cccc(Cl)c3F)ncnc2cc1OCCOC(F)F | 6.47 |
| OCC1OC(n2cnc3c(NCc4ccco4)ncnc32)C(O)C1O (configuration not stated) | 48.1 |

Turning now to a further molecule:
Lab book: TGI of COC(=O)c1cc2c(cc1C(=O)OC)[C@@]1(C)CCCC(C)(C)C1CC2 (some centres not stated) noted as 15.3
